# targetOrTestSystem: T1, EsCas13d, nuclease-dead (Eubacterium siraeum, UniProt B0MS50, R295A;H300A;R849A;H854A)
# T1 sequence: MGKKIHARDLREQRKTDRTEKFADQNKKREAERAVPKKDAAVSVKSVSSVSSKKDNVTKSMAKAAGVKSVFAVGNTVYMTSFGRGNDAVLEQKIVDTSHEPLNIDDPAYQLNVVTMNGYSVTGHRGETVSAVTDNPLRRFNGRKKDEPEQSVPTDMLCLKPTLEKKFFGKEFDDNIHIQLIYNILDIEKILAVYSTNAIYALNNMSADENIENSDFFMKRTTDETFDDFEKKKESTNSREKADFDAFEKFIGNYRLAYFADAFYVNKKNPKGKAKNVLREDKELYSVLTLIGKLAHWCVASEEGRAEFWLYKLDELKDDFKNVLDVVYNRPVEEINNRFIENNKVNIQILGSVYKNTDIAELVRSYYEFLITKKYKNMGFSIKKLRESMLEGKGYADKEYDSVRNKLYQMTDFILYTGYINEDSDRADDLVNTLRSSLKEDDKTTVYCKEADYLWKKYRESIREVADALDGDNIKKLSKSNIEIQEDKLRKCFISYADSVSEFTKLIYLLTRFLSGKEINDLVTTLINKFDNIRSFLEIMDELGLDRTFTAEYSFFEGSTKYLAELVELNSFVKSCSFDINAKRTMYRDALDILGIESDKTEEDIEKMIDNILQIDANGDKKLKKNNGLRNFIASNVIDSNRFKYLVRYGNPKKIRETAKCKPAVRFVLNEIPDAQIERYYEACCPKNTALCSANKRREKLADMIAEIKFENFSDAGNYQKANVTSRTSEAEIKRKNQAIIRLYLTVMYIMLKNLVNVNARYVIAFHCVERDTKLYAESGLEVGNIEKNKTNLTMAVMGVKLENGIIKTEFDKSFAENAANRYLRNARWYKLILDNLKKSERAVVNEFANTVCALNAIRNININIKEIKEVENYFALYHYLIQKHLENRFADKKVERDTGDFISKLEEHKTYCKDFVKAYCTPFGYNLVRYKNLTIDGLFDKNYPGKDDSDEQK
# protocolNotes: crRNA (strand 1, pre-loaded); Mg2+; 40 mM Tris-HCl pH 7.5, 150 mM NaCl, 6 mM MgCl2, 1 mM DTT, 0.1% Tween-20, 0.2 mg/ml BSA; 25 C; 10 min per concentration, then washed
# measurementSetup: tags: His6-TwinStrep-SUMO cleaved; N-terminal SNAP kept (SNAP-Surface 488); label: 3' end held by stalled T7 RNA polymerase
pKd: −log10 of the molar value.
readoutLabel: pKd

[[record]]
binder = "target 1 C2U,G5C (mixed) RNA 1: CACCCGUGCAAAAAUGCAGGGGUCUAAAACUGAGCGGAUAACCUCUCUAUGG RNA 2: GGGAAUGGAUCCACAUCUACGAAUUCGUACCAUAGAGAGGUUAUCCCCUUACCGAGAUCGGAAGAGCACACGU"
readoutlabel = "pKd"
quantitativereadout = 7.91

[[record]]
binder = "target 2 MT 5'PFS GUA 3'PFS GCG (mixed) RNA 1: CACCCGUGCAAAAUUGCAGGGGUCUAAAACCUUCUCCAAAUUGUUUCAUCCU RNA 2: GGGAAUGGAUCCACAUCUACGAAUUCGUAAGGAUGAAACAAUUUGGAGAAGGCGAGAUCGGAAGAGCACACGU"
readoutlabel = "pKd"
quantitativereadout = 8.17

[[record]]
binder = "target 1 MT 5'PFS AAA 3'PFS CGU (mixed) RNA 1: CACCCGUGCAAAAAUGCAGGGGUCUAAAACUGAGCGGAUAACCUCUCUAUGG RNA 2: GGGAAUGGAUCCACAUCUACGAAUUCAAACCAUAGAGAGGUUAUCCGCUCACGUAGAUCGGAAGAGCACACGU"
readoutlabel = "pKd"
quantitativereadout = 7.46

[[record]]
binder = "target 1 MT 5'PFS GUU 3'PFS CUU (mixed) RNA 1: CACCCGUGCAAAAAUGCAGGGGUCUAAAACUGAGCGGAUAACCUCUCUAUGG RNA 2: GGGAAUGGAUCCACAUCUACGAAUUCGUUCCAUAGAGAGGUUAUCCGCUCACUUAGAUCGGAAGAGCACACGU"
readoutlabel = "pKd"
quantitativereadout = 7.79

